- assayRemarks: inhibitors of TNFa-induced NFkB p65 translocation, primary screen, imaging, HUVEC, MLSMR starter and 10KST1 sets (AID 438);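 note: compound added about 3h40 before a 20 min TNFalpha stimulation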
- cond: HUVEC TNFa-induced p65 nuclear translocation; measured here: nuclei count (cytotoxicity indicator), at 2.08 µM
cell count values, listed per item
Give the figure only, with no unit attached.

The compound identified as C/C(NC1CCCC1)=C(/C#N)C(N)=O registered its cell count at 396

The compound identified as Cn1c(=O)c2ccccc2n(Cc2ccccc2F)c1=O registered its cell count at 254

More entries:
The compound identified as Cn1c(SCC(=O)Nc2ccc(F)cc2)nnc1-c1cccnc1 registered its cell count at 660

The compound identified as CCOC(=O)c1ccc(NC2OC(=O)c3ccccc32)cc1 (configuration not stated) registered its cell count at 605

The compound identified as C#CCOC(=O)C1C2C=CC(C2)C1C(=O)O (configuration not stated) registered its cell count at 394

The compound identified as CCOC(=O)c1cccc(NC(=O)CSc2nnc(C3CCCCC3)n2C)c1 registered its cell count at 291

The compound identified as COc1cc(-c2nc(S(=O)(=O)c3ccc(C)cc3)c(N(C)C)o2)cc(OC)c1OC registered its cell count at 432

The compound identified as CSc1nc(N2CCOCC2)c2ccccc2n1 registered its cell count at 730

The compound identified as CCOC(=O)c1ccccc1NC(=O)COC(=O)C1=COCCO1 registered its cell count at 595

The compound identified as CC(=O)c1ccc(NC(=O)c2cc(CC(C)C)on2)cc1 registered its cell count at 572

The compound identified as NC(=O)C1CCN(CC(=O)N2c3ccccc3CCc3ccccc32)CC1 registered its cell count at 409

The compound identified as COc1ccc(S(=O)(=O)Cc2ccc(C(=O)N3CCN(c4ccccc4)CC3)o2)cc1 registered its cell count at 524
